B1: CDC25A (parent)
chain: TVAGKHQDLKYISPEIMASVLNGK

Variants of: B1
Experiment: protein stability index of a GFP-peptide fusion (GPS, HEK-293T) (PSI 1-6); higher = more stable;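 further: lentivirally expressed fusions sorted by FACS into six bins by GFP to DsRed ratio, PSI derived from sequencing read proportions per bin multiplied by bin number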
Settings: c terminus: a fixed tail appended
Please mark true (1) if the recorded protein stability index is equal to or greater than 3, and false (0) if it falls below.

S19V
false (0)
A3D
true (1)
K5A
true (1)
Q7M
false (0)
S19P
true (1)
P14S
false (0)
Y11C
true (1)
D8L
false (0)
V20P
true (1)
A3H
false (0)

Reference source: the supplement of paper PMC10567573
